B1: TOR1AIP2 (parent)
chain: SPGHSSAGQEGEDTLRRRLLAPEA

Variants of: B1
Assay: protein stability index of a GFP-peptide fusion (GPS, HEK-293T) (PSI 1-6); higher = more stable;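 also: lentivirally expressed fusions sorted by FACS into six bins by GFP to DsRed ratio, PSI derived from sequencing read proportions per bin multiplied by bin number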
Conditions: c terminus: a fixed tail appended
Output fulfilled for protein stability index not less than 4; output not fulfilled otherwise.

Kindly determine if protein stability index recorded for R17G is above or exactly 4. fulfilled

Can you handle E10K next? not fulfilled

Can you handle L19Y next? fulfilled

Can you handle G11D next? fulfilled

Can you handle A7N next? not fulfilled

Can you handle R18N next? fulfilled

Can you handle G3N next? fulfilled

Can you handle P22Q next? fulfilled

Can you handle H4Q next? not fulfilled

Can you handle G8I next? fulfilled

Can you handle Q9E next? fulfilled

Can you handle A24E next? fulfilled

Can you handle A21P next? fulfilled

Can you handle S1L next? fulfilled

Can you handle E23D next? fulfilled

Can you handle G3A next? not fulfilled

Can you handle A24V next? fulfilled

Can you handle R18M next? not fulfilled

Can you handle L19Q next? fulfilled

Can you handle H4R next? not fulfilled

Can you handle A7M next? not fulfilled

Can you handle A7G next? fulfilled

Can you handle R16K next? fulfilled

Can you handle P22Y next? fulfilled

Can you handle L19N next? fulfilled

Can you handle D13V next? fulfilled

Can you handle A7T next? fulfilled

Can you handle A24H next? fulfilled

Can you handle P22E next? fulfilled

Can you handle H4N next? fulfilled

Can you handle G3M next? fulfilled

Can you handle P2W next? not fulfilled

Can you handle D13N next? fulfilled

Can you handle G8P next? fulfilled

Can you handle R17M next? not fulfilled

Can you handle R17A next? fulfilled

Can you handle A24S next? fulfilled

Can you handle A21I next? fulfilled

Can you handle A21S next? not fulfilled

Can you handle P2V next? not fulfilled

Can you handle A21R next? fulfilled
